Test system: SR leukemia
Test: NCI tumour cell line growth inhibition, 48 h
quantity.name: TGI

| compound | target.or.test.system | quantity.name | reported.value |
| --- | --- | --- | --- |
| Oc1cccc(-c2cc(=S)ss2)c1 | SR leukemia | TGI | 11.9 µM |
| CN1CCN(c2nc(C3=C(c4c[nH]c5ccccc45)C(=O)NC3=O)c3ccccc3n2)CC1 | SR leukemia | TGI | 36.2 µM |
| COC1=C(NC(C)=O)C(=O)c2nc3n(c2C1=O)CCC3 | SR leukemia | TGI | > 86.2 µM |
| Cn1c(=O)c2[nH]c(Nc3ccccc3)nc2n(C)c1=O | SR leukemia | TGI | > 10 µM |
| NC(N)=Nc1nc2cc(N)ccc2o1 | SR leukemia | TGI | > 100 µM |
| Cc1cc([C@H](C#N)c2nc3ccccc3s2)nc(Cl)n1 | SR leukemia | TGI | > 100 µM |
| CC(C)(C)NC(=O)C12C3C4C1C1C2C3C41I (stereo unspecified) | SR leukemia | TGI | > 100 µM |
| NS(=O)(=O)OC[C@H]1O[C@@H](n2cnc3c(N[C@H]4CCc5ccccc54)ncnc32)[C@H](O)[C@@H]1O | SR leukemia | TGI | > 52.6 µM |
| Cc1cccc2c1NC(c1c(C)[nH]c3ccccc13)C2 (stereo unspecified) | SR leukemia | TGI | > 100 µM |
| N.N.NCCCCN.O=C([O-])CCl.O=C([O-])CCl.O=C([O-])CCl.O=C([O-])CCl.[Pt+4].[Pt+4] | SR leukemia | TGI | > 50 µM |
| CC([C@H]1CCC2C3CCC4C(=O)C(NC=O)=CC[C@]4(C)C3CC[C@@]21C)N(C)C (stereo partly specified) | SR leukemia | TGI | 6.5 µM |

---

System: SN12C renal
Test: NCI tumour cell line growth inhibition, 48 h
Readings of TGI for the listed compounds

| compound | TGI |
| --- | --- |
| O=c1[nH]nc(Nc2ccccc2)c2nnn(Cc3ccccc3)c12 | > 100 µM |
| Nc1nc(-c2ccccc2)cc(-c2ccc(F)cc2)c1-c1ccc(Cl)cc1 | > 100 µM |
| Cc1ccc(N=c2oc3c(ccc4ccccc43)nc2Nc2ccc(C)cc2)cc1 | > 100 µM |
| CC(C)n1c2c(c3ccccc3c1=O)C(=O)c1ccccc1-2 | > 100 µM |
| COc1ccc2c(c1)Cc1cc(N=[N+]([O-])c3ccc4c(c3)Cc3cc(OC)ccc3-4)ccc1-2 | > 100 µM |
| Cc1cc(C)c(-c2noc(-c3ccc(Cl)cc3)c2C2=NCCN2)c(C)c1 | 45.5 µM |
| CCOC(=O)C(C(N)=O)c1nc2cc([N+](=O)[O-])ccc2nc1/C=C(\O)c1ccc(C)cc1 (stereo not given) | 85.5 µM |
| O=C(NC12CC3CC(CC(C3)C1)C2)n1cnc2cncnc21 | > 100 µM |
| COc1cc(OC)cc(-c2n[nH]nc2-c2ccc3c(c2)OCO3)c1 | > 100 µM |
| S=c1sc2ccccc2n1CN1CCN(Cc2ccccc2)CC1 | > 100 µM |

---

Test system: SNB-19 CNS
Assay: NCI tumour cell line growth inhibition, 48 h
Where a SMILES comes first, the peptide text is derived from it. [ ]: non-standard residue; d: D form. The star is where a group is joined. ξ: configuration not given here. 4Abz = Nc1ccc(C(=O)O)cc1; ξL = CC(C)CC(N)C(=O)O; NHOH = ON*
quantity.name: GI50

| molecule | target.or.test.system | reported.value |
| --- | --- | --- |
| CC(C)CC(NC(=O)[C@@H]1CCCN1C(=O)CNC(=O)c1ccc(N)cc1)C(=O)N[C@H](C)C(=O)NO (some centres not stated) (H-[4Abz]GP[ξL][dA]-{NHOH}) | SNB-19 CNS | > 100 µM |
| O=C1/C(=C/c2ccc(F)cc2)CN(Cc2cn(CCNc3ccnc4cc(Cl)ccc34)nn2)C/C1=C\c1ccc(F)cc1 | SNB-19 CNS | 1.57 µM |
| COc1cc(C2C3=C(COC3=O)N(CCO)c3cc4c(cc32)OCCO4)cc(OC)c1O (configuration not stated) | SNB-19 CNS | 2.11 µM |
| CCCCCCCC(=O)SCC/C=C/[C@@H]1CC(=O)NCc2cccc(n2)CN(Cc2ccc(Cl)cc2)CC(=O)N[C@@H](C(C)C)C(=O)O1 | SNB-19 CNS | 22.6 µM |
| COC(=O)C1=C(O)C(C(=O)OC)[C@@]2(O)[C@@H](C(=O)OC)C(c3ccc(OC(=O)C(Cc4ccccc4)NC(C)=O)cc3)C[C@@H]1[C@@H]2C(=O)OC (some centres not stated) | SNB-19 CNS | 36.4 µM |
| C=C1c2c(C)nn(-c3ccccc3)c2N(C)C23C[C@@H]1C1(C)c4c(C)nn(-c5ccccc5)c4N(C)C(C)(C[C@H]12)C3 (some centres not stated) | SNB-19 CNS | 11 µM |
| COc1ccc(C2CC(c3cccc(Nc4ccnc5cc(Cl)ccc45)c3)=NN2c2ccccc2)cc1 (configuration not stated) | SNB-19 CNS | 6.9 µM |
